Target: T1, human IgE (source not stated for the assay) (human, UniProt P01854-1 1-428)
T1 construct: also called purified human IgE; IgE (Calbiochem or U266-derived)
T1 sequence (P01854 other isoform, or with tags, fused parts or gaps): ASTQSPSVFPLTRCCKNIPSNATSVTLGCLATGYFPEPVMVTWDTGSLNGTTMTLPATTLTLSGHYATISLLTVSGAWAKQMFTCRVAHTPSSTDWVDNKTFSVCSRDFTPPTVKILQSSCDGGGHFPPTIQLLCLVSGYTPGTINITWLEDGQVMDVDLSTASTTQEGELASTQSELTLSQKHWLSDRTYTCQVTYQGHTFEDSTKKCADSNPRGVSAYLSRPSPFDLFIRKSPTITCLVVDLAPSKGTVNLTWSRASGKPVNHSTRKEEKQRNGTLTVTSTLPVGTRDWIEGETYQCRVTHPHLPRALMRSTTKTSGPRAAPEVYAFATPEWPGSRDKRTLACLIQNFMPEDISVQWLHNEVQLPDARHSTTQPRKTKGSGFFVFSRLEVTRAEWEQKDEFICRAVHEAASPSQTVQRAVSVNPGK
Assay: SPR, BIAcore 2000; IgE amine-coupled to CM5 chip, IgG as analyte, bivalent analyte model; geomean
Readout kind: Kd (nM)
Give the quantity in nM, number only.

[[record]]
binder = "Antibody 33 (IgG) (antibody, V domains shown) VH: EVQLLESGGGLVQPGGSLSLSCAAPGFTFSSYAMSWVRQAPGKGLEWVSAISGGSGGRTYYADSVKGRFTISKDNSKNTLYLQMNSLRAEDTAVYYCARHIAVAGTRGFDYWGRGTLVTVSS VL: SYVLTQPPSVSVSPGQTASITCSGDKLGDTYASWYRQRSGLSPALVIYQDDKRPSGIPERFSGSNSGNTATLTISGTHTMDEADYYCLAWDTRTSGAVFGGGTKLTVL"
reading = 0.8

[[record]]
binder = "Antibody 15 (IgG) (antibody, V domains shown) VH: EVQLLESGGGLVQPGGSLRLSCAAPGFTFSSYAMSWVRQAPGKGLEWVSAISGGSGGRTYYADSVKGRFTISRDNSKNTLYLQMNSLRAEDTAVYYCARHIAVAGTRGFDYWGRGTLVTVSS VL: SYVLTQPPSVSVSPGQTASITCSGDKLGDTYASWYRQRSGQSPVLVIYQDDRRPSGIPERFSGSNSGNTATLTISGTHTMDEADYYCLAWDTRTSGAVFGGGTKLTVL"
reading = 0.9

[[record]]
binder = "Antibody 9 (IgG) (antibody, V domains shown) VH: EVQLLESGGGLVQPGGSLRLSCAASGFTFSSYAMSWVRQAPGKGLEWVSAISGGSGGRTYYADSVKGRFTISRDNSKNTLYLQMNSLRAEDTAVYYCARHIAVAGTRGFDYWGRGTLVTVSS VL: SFVLSQPPSVSVSPGQTASITCSGDKLGDTYASWYRQRSGQSPVLVIYQDDKRPSGIPERFSGSNSGNTATLTISGTHTMDEADYYCLAWDTRTSGAVFGGGTKLTVL"
reading = 79

[[record]]
binder = "Antibody 34 (IgG) (antibody, V domains shown) VH: EVQLLESGGGLVQPGGSLRLSCAAPGFTLSSYAMSWVRQAPGKGLEWVSAISGGSGGRTYYADSVKGRFTISRDNSKNTLYLQMNSLRAEDTAVYYCARHIAVAGTRGFDYWGRGTLVTVSS VL: SYVLTQPPSVSASPGQTASITCSGDKLGDTYASWYRQRSGQSPVLVIYQDDKRPPGIPERFSGSNSGNTATLTIRGTHTMDEADYYCLAWDTRTSGAVFGGGTKLSVL"
reading = 26


Problem: Give recorded Kd. Antibody 33GL (germlined IgG) (antibody, V domains shown, germlined IgG; also called Antibody 35 (provisional application)) VH: EVQLLESGGGLVQPGGSLSLSCAAPGFTFSSYAMSWVRQAPGKGLEWVSAISGGSGGRTYYADSVKGRFTISKDNSKNTLYLQMNSLRAEDTAVYYCARHIAVAGTRGFDYWGRGTLVTVSS VL: SYELTQPPSVSVSPGQTASITCSGDKLGDTYASWYQQKPGLSPALVIYQDDKRPSGIPERFSGSNSGNTATLTISGTQAMDEADYYCLAWDTRTSGAVFGGGTKLTVL
Solution: 0.142
